# ASSAY TARGET: UniProtKB Q9BUB5
# ASSAY OVERVIEW: MNK1 in vitro kinase assay (Assay 3), Z'-LYTE
# Format: biochemical
# EXPERIMENTAL PARAMETERS: compound concentration of 1 μM, read-out: MNK1 % INH
# Text: C. MNK1 In vitro Kinase Assay (Assay 3) MNK1 Data can be obtained from the MNK1 Z′-LYTE® assay. The MNK1 Z′-LYTE® screening protocol and assay conditions are also described on www.invitrogen.com. The assay is described as follows: The Z′-LYTE® biochemical assay employs a fluorescence-based, coupled-enzyme format and is based on the differential sensitivity of phosphorylated and non-phosphorylated peptides to proteolytic cleavage. […] 9. Read on fluorescence plate reader and analyze the data […]
ENDPOINT: inhibition at 1 µM (%)
Reply with just the number (in %).

CCN(CC)C(=O)[C@@H](C)Oc1cc(F)ccc1Nc1ncnc2cc(N=S(C)(C)=O)cc(C)c12 = 78

Q: Consider the compound `C[C@H](NC(=O)[C@@H](C)Oc1cc(F)ccc1Nc1ncnc2cc(N=S(C)(C)=O)cc(F)c12)C(F)(F)F` . State its measured inhibition at 1 µM.
A: 99

Q: Consider the compound `Cc1cc(N=S(C)(C)=O)cc2ncnc(Nc3ccc(F)cc3O[C@H](C)C(=O)NC3COC3)c12` . State its measured inhibition at 1 µM.
A: 99

Q: Consider the compound `C[C@H](NC(=O)[C@@H](C)Oc1cc(F)ccc1Nc1ncnc2cc(N=S3(=O)CCC3)cc(F)c12)C(F)(F)F` . State its measured inhibition at 1 µM.
A: 93

====

# ASSAY TARGET: MNK2a (Homo sapiens (Human))
# Sequence (Q9HBH9 whole entry): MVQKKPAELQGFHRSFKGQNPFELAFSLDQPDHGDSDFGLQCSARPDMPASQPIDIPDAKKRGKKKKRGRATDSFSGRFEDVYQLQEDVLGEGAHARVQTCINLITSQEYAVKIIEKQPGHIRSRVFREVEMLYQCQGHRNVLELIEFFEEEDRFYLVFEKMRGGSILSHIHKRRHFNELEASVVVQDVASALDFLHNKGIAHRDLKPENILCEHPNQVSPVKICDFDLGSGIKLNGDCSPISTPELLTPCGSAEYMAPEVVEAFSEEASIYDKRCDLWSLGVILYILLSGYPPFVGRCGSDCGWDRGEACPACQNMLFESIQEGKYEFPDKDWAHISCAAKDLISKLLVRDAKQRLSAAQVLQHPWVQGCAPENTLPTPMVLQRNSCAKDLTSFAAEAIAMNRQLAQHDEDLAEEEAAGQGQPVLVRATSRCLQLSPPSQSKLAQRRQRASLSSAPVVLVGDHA
Each entry below lists one item and its recorded pIC50 value.
# log scale: pIC50 equals minus log10 of the concentration in mol/L

# example entries with known answers
Cc1cc(N=S2(=O)CCC(C)C2)cc2ncnc(Nc3ccc(F)cc3O[C@H](C)C(=O)NCC(F)(F)F)c12 (stereo partly shown) = 8.70
CC#CCNC(=O)[C@@H](C)Oc1cc(F)ccc1Nc1ncnc2cc(N=S(C)(C)=O)cc(C)c12 = 8.05
Cc1cc(N=S(C)(C)=O)cc2ncnc(Nc3ccc(F)cc3O[C@H](C)C(=O)N(C)C(C)C)c12 = 8.10
Cc1cc(N=S2(=O)CCCC2)cc2ncnc(Nc3ccc(F)cc3O[C@H](C)C(=O)NCC(F)(F)F)c12 = 9.00
Cc1cc(N=S(C)(C)=O)cc2ncnc(Nc3ccc(F)cc3OC[C@@H]3CCC(=O)N3)c12 = 8.30
Cc1cc(N=S(C)(C)=O)cc2ncnc(Nc3ccc(F)cc3O[C@H](C)C(=O)NCC(C)O)c12 (stereo partly shown) = 8.40

Shift focus to the following entry.
Q: Please respond with reported pIC50 (system MNK2a (Homo sapiens (Human))) for `C[C@@H](Oc1cc(F)ccc1Nc1ncnc2cc(N=S3(=O)CC4(COC4)C3)cc(Cl)c12)C(=O)NCC(F)(F)F` .
A: 8.52

====

# ASSAY TARGET: MNK1 (Homo sapiens (Human), UniProt Q9BUB5)
# Sequence (Q9BUB5 other isoform, or with tags, fused parts or gaps): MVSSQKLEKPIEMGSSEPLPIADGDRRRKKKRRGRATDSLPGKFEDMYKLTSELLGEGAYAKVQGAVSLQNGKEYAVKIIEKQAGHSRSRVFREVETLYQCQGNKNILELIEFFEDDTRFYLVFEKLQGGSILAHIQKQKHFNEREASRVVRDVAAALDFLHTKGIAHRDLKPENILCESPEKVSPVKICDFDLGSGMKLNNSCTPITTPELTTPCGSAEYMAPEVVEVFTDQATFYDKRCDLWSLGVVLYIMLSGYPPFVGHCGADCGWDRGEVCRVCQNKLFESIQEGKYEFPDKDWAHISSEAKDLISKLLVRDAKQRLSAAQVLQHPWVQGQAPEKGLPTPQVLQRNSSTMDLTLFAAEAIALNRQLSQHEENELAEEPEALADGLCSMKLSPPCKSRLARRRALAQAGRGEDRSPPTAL
Each entry below lists one item and its recorded pIC50 value.
# log scale: pIC50 equals minus log10 of the concentration in mol/L

# example entries with known answers
Cc1cc([C@@H](C)Oc2ncccc2Nc2ncnc3cc(N=S4(=O)CCCC4)cc(C)c23)on1 [Example 2.009] = 7.31
Cc1cc([C@@H](C)Oc2ncccc2Nc2ncnc3cc(N=S(C)(C)=O)cc(Cl)c23)on1 [Example 1.016] = 7.28
Cc1cc([C@@H](C)Oc2cc(F)ccc2Nc2ncnc3cc(N=S(C)(C)=O)cc(Cl)c23)on1 [Example 1.019] = 7.27
Cc1cc(N=S2(=O)CCCC2)cc2ncnc(Nc3ccc(F)cc3O[C@H](C)C(=O)NCC(F)(F)F)c12 [Example 4.074] = 7.42
Cc1cc(N=S(C)(C)=O)cc2ncnc(Nc3ccc(F)cc3O[C@H](C)C(=O)NC(C(F)(F)F)C(F)(F)F)c12 [Example 3.054] = 7.29

Q: Please respond with reported pIC50 (system MNK1 (Homo sapiens (Human), UniProt Q9BUB5)) for Cc1cc(N=S(C)(C)=O)cc2ncnc(Nc3ccc(F)cc3O[C@@H](C)CNC(=O)C(F)(F)F)c12 [Example 5.004] .
A: 7.18

Q: Please respond with reported pIC50 (system MNK1 (Homo sapiens (Human), UniProt Q9BUB5)) for Cc1cc(N=S2(=O)CCCC2)cc2ncnc(Nc3ccc(F)cc3O[C@H](C)C(=O)NCC(C)(C)O)c12 [Example 4.058] .
A: 7.12
